Biological target: FPR2 (Homo sapiens, UniProt P25090)
Sequence (P25090 1-351): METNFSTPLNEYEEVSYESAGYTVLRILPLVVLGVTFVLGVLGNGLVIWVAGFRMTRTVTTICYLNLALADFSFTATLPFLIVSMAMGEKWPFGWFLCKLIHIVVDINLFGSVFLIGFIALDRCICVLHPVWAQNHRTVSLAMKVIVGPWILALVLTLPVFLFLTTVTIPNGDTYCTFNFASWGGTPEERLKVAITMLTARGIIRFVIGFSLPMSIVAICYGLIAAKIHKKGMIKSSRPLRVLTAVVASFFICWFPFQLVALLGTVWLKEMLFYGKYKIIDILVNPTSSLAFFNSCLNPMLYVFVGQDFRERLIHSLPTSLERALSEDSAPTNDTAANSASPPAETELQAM
Assay: FPR2 compound-induced calcium activity assay on FLIPR Tetra
Details: HEK-Gα16, CHO-Gα16 or HEK-Gqi5 cells stably expressing FPR2, tested at 0.61 to 10,000 nM
Protocol: Compounds of Formula I modulate FPR activity. […] HEK-Gα16 and CHO-Gα16 cells stably expressing FPR2 were cultured in (F12, 10% FBS, 1% PSA, 400 μg/ml geneticin and 50 μg/ml hygromycin) and HEK-Gqi5 cells stable expressing FPR2 were cultured in (DMEM high glucose, 10% FBS, 1% PSA, 400 μg/ml geneticin and 50 μg/ml hygromycin). […] Results are expressed as EC50 (nM) and efficacy values.
MEASUREMENT_KIND: EC50 (nM)

[
  {
    "CHEMICAL_STRING": "CCOC(=O)CCC(=O)N(CC(C)C)NC(=O)Nc1ccc(Br)cc1",
    "MEASUREMENT_KIND": "EC50",
    "EXPERIMENTAL_RESULT": 31
  },
  {
    "CHEMICAL_STRING": "CC(C)(CC(=O)NNC(=O)Nc1ccc(Br)cc1)C(=O)O",
    "MEASUREMENT_KIND": "EC50",
    "EXPERIMENTAL_RESULT": 602
  },
  {
    "CHEMICAL_STRING": "CC(C)(C(=O)O)C(=O)NNC(=O)Nc1ccc(Br)cc1",
    "MEASUREMENT_KIND": "EC50",
    "EXPERIMENTAL_RESULT": 5210
  },
  {
    "CHEMICAL_STRING": "CC(C)CN(NC(=O)Nc1ccc(Br)cc1F)C(=O)CCC(=O)O",
    "MEASUREMENT_KIND": "EC50",
    "EXPERIMENTAL_RESULT": 339
  },
  {
    "CHEMICAL_STRING": "CCCN(NC(=O)Nc1ccc(Br)cc1F)C(=O)CCC(=O)OCC",
    "MEASUREMENT_KIND": "EC50",
    "EXPERIMENTAL_RESULT": 34
  }
]

(P) CCCN(NC(=O)Nc1ccc(C(F)(F)F)cc1)C(=O)CCC(=O)OCC
(Q) CC(C)CN(NC(=O)Nc1ccc(Br)cc1)C(=O)CCC(=O)O
query: Which has the smaller recorded EC50, P or Q ? Kindly give the label for the entry you pick.
result: Q
